B1: PLK2 (parent)
chain: YAELGQCSVFPATDAPEQFISQVT

Variants of: B1
Experiment notes: protein stability index of a GFP-peptide fusion (GPS, HEK-293T) (PSI 1-6); higher = more stable;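 note: lentivirally expressed fusions sorted by FACS into six bins by GFP to DsRed ratio, PSI derived from sequencing read proportions per bin multiplied by bin number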
Condition summary: c terminus: a fixed tail appended
Criterion met means recorded protein stability index is 2 or above; Criterion not met means it is below 2.

Record excerpt, results attached:
T13F	Criterion not met
L4N	Criterion met

For this variant, is measured protein stability index 2 or higher? `A2F`
Criterion met

For this variant, is measured protein stability index 2 or higher? `E17S`
Criterion met

For this variant, is measured protein stability index 2 or higher? `F10K`
Criterion met

For this variant, is measured protein stability index 2 or higher? `S21W`
Criterion met

For this variant, is measured protein stability index 2 or higher? `P16L`
Criterion not met

These data points were gathered from the supplement of paper PMC10567573.
